- Tested on: various cell lines of different tumor origins
- MEASUREMENT_NOTES: Inhibition of cell proliferation, InCell Analyzer assay
- Format: cell-based
- TEST_CONDITIONS: Homo sapiens, NCI-H460, NCI-H460, Lung
MEASURED_PROPERTY: IC50

Enquiry: // fetch various cell lines of different tumor origins IC50 for COc1cc(N2CCC(N3CCCCC3)CC2)ccc1Nc1nccc(-c2c(-c3cccc(C(=O)Nc4c(F)cccc4F)c3)nc3ccccn23)n1
Return: 1000 to 5000 nM

* * *

- STUDY_SYSTEM: IR (NIH-3T3 cells over expressing human IGF-1R or IR) (Homo sapiens, UniProt P06213)
- Sequence (P06213 28-1382): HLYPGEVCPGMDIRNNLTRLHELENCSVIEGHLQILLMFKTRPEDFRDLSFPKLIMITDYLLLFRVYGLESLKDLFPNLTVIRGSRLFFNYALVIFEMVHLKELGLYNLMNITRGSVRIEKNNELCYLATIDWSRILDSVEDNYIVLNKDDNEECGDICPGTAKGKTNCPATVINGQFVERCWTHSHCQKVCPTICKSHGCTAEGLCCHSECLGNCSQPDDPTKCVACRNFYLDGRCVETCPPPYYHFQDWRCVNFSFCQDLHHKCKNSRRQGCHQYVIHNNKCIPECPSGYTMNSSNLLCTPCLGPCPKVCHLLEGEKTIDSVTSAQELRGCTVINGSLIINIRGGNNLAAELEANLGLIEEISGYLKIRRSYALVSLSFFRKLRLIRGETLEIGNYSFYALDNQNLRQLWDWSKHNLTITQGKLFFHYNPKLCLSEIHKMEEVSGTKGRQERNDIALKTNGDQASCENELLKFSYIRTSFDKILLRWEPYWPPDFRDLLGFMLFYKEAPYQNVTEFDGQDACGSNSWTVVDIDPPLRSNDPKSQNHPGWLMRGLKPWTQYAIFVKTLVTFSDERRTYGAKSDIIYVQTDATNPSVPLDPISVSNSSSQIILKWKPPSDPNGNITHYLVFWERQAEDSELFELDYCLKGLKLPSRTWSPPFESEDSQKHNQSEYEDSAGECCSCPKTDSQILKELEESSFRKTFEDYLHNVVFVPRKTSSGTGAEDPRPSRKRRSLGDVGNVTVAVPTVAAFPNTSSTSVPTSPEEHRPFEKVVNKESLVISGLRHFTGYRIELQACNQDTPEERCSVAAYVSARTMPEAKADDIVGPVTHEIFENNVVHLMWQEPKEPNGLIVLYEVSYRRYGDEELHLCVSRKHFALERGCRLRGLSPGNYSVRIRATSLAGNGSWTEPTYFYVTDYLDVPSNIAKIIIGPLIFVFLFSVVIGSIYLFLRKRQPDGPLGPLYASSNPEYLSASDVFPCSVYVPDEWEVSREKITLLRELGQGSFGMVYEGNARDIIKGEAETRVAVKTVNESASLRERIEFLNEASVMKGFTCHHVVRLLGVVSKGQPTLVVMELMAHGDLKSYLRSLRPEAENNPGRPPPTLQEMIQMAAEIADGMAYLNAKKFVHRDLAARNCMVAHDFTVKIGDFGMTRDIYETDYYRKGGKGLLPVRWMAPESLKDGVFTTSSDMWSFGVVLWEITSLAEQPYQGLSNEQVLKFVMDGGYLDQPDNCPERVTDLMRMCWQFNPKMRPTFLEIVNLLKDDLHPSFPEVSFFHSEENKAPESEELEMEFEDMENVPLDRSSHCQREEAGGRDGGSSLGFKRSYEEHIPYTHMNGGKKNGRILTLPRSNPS
- MEASUREMENT_NOTES: IR cellular autophosphorylation (DELFIA)
- TEST_CONDITIONS: NIH-3T3 cells over expressing IR, insulin stimulated
Exercise: for every item that follows, state its recorded IC50.

Enquiry: Quick one: IC50 of CCCN1CCN(c2ccc(Nc3nccc(-c4c(-c5cccc(C(=O)Nc6c(F)cccc6F)c5)nc5ccccn45)n3)c(OC)c2)CC1 ?
Return: < 100 nM

Enquiry: Quick one: IC50 of COc1cc(N2CCC(N3CCN(CCS(C)(=O)=O)CC3)CC2)c(Cl)cc1Nc1nccc(-c2c(-c3cccc(C(=O)Nc4c(F)cccc4F)c3)nc3ccccn23)n1 ?
Return: < 100 nM

Enquiry: Quick one: IC50 of COCCN1CCN(c2cc(OC)c(Nc3nccc(-c4c(-c5ccc(OC)c(C(=O)Nc6c(F)cccc6F)c5)nc5ccccn45)n3)cc2C)CC1 ?
Return: < 100 nM

Enquiry: Quick one: IC50 of COc1cc(C2CCN(CCS(C)(=O)=O)CC2)c(C)cc1Nc1nccc(-c2c(-c3ccc(OC)c(C(=O)Nc4c(F)cccc4F)c3)nc3ccccn23)n1 ?
Return: < 100 nM

Enquiry: Quick one: IC50 of CCOc1cc(N2CCN(C3CCN(CCF)CC3)CC2)ccc1Nc1nccc(-c2c(-c3cccc(C(=O)Nc4c(F)cccc4F)c3)nc3ccccn23)n1 ?
Return: < 100 nM

Enquiry: Quick one: IC50 of COc1cc(N2CCC(N3CCC(CCS(C)(=O)=O)CC3)CC2)ccc1Nc1nccc(-c2c(-c3cccc(C(=O)Nc4c(F)cccc4F)c3)nc3ccccn23)n1 ?
Return: < 100 nM

Enquiry: Quick one: IC50 of CCOc1cc(N2CCC(N3CCN(S(C)(=O)=O)CC3)CC2)c(CC)cc1Nc1nccc(-c2c(-c3ccc(OC)c(C(=O)Nc4c(F)cccc4F)c3)nc3ccccn23)n1 ?
Return: < 100 nM

Enquiry: Quick one: IC50 of CCOc1cc(N2CCC(CCS(C)(=O)=O)CC2)c(C)cc1Nc1nccc(-c2c(-c3ccc(OC(C)C)c(C(=O)Nc4c(F)cccc4F)c3)nc3ccccn23)n1 ?
Return: < 100 nM

Enquiry: Quick one: IC50 of COc1cc(N2CCC(N3CCCCC3)CC2)ccc1Nc1nccc(-c2c(-c3ccc(OC)c(C(=O)Nc4c(F)cccc4F)c3)nc3cc(C)ccn23)n1 ?
Return: < 100 nM

Enquiry: Quick one: IC50 of COc1cc(N2CCC(N3CCN4CCOC[C@@H]4C3)CC2)ccc1Nc1nccc(-c2c(-c3cccc(C(=O)Nc4c(F)cccc4F)c3)nc3ccccn23)n1 ?
Return: < 100 nM

Enquiry: Quick one: IC50 of COc1c(Nc2nccc(-c3c(-c4cccc(C(=O)Nc5c(F)cccc5F)c4)nc4ccccn34)n2)ccc(N2CCC(N3CCCCC3)CC2)c1C ?
Return: > 500 nM

Enquiry: Quick one: IC50 of CCOc1cc(N2CCC(CCS(C)(=O)=O)CC2)c(CC)cc1Nc1nccc(-c2c(-c3ccc(OCC)c(C(=O)Nc4c(F)cccc4F)c3)nc3ccccn23)n1 ?
Return: < 100 nM

Enquiry: Quick one: IC50 of COc1cc(C2CCN(C3CCN(CCS(C)(=O)=O)CC3)CC2)ccc1Nc1nccc(-c2c(-c3cccc(C(=O)Nc4c(F)cccc4F)c3)nc3ccccn23)n1 ?
Return: < 100 nM

Enquiry: Quick one: IC50 of CC(C)COc1cc(N2CCC(N3CCCCC3)CC2)ccc1Nc1nccc(-c2c(-c3cccc(C(=O)Nc4c(F)cccc4F)c3)nc3ccccn23)n1 ?
Return: > 500 nM

Enquiry: Quick one: IC50 of COc1cc(N2CCN(S(C)(=O)=O)CC2)c(C)cc1Nc1nccc(-c2c(-c3ccc(OC)c(C(=O)Nc4c(F)cccc4F)c3)nc3ccccn23)n1 ?
Return: < 100 nM

Enquiry: Quick one: IC50 of COc1cc(C2CCN(C3CCN(CCF)CC3)CC2)ccc1Nc1nccc(-c2c(-c3cccc(C(=O)Nc4c(F)cccc4F)c3)nc3ccccn23)n1 ?
Return: < 100 nM

Enquiry: Quick one: IC50 of CCOc1ccc(-c2nc3ccccn3c2-c2ccnc(Nc3ccc(N4CCC(CCS(C)(=O)=O)CC4)cc3OC)n2)cc1C(=O)Nc1c(F)cccc1F ?
Return: < 100 nM

Enquiry: Quick one: IC50 of COc1ccc(-c2nc3ccccn3c2-c2ccnc(Nc3ccc(N4CCC(N5CCCCC5)CC4)c(C)c3OC)n2)cc1C(=O)Nc1c(F)cccc1F ?
Return: > 500 nM

Enquiry: Quick one: IC50 of CCOc1ccc(-c2nc3ccccn3c2-c2ccnc(Nc3cc(Cl)c(N4CCN(CCS(C)(=O)=O)CC4)cc3OC)n2)cc1C(=O)Nc1c(F)cccc1F ?
Return: < 100 nM

Enquiry: Quick one: IC50 of COc1cc(N2CCC(N3CCC(C)CC3)CC2)ccc1Nc1nccc(-c2c(-c3cccc(C(=O)Nc4c(F)cccc4F)c3)nc3ccccn23)n1 ?
Return: 100 to 500 nM

Enquiry: Quick one: IC50 of COc1cc(N2CCC(C3CCN(CCS(C)(=O)=O)CC3)CC2)ccc1Nc1nccc(-c2c(-c3cccc(C(=O)Nc4c(F)cccc4F)c3)nc3ccccn23)n1 ?
Return: < 100 nM

Enquiry: Quick one: IC50 of COc1cc(N2CCN(S(C)(=O)=O)CC2)c(C)cc1Nc1nccc(-c2c(-c3cccc(C(=O)Nc4c(F)cccc4F)c3)nc3ccccn23)n1 ?
Return: < 100 nM

Enquiry: Quick one: IC50 of COc1cc(C2CCN(CCS(C)(=O)=O)CC2)c(C)cc1Nc1nccc(-c2c(-c3cccc(C(=O)Nc4c(F)cccc4F)c3)nc3ccccn23)n1 ?
Return: < 100 nM
